- Tested target: T1, 1F
- T1 construct: also called HLA-A2 / point-mutant NY-ESO peptide 1F complex on T2 cells
- Assay notes: flow cytometry on peptide-pulsed T2 cells, scFv 100 nM
Endpoint name: standardized gMFI
// response body must contain only the number

Lab book: standardized gMFI of NYA-2143 (scFv) scFv: GEVQLVESGGGVVQPGRSLTPSCSASGFSIRSYDIHWVRLAPGKGLEWVATISYDGSQKYFADSVKGRFTIFRDESENMVYLQMSGLRVEDTAVYHCARGSSGHYEAFDIWGQGTMVTVSSGGGGSGGGGSGGGGSQSVLTQPPSVSAAPGQKVTISCSGSSSNIGNWYVSWYQRLPGTAPKLLIYDNNKRPSGIPDRFSGSKSGTSATLGITGLQTGDEADYYCGTWDSSLSAPWVFGGGTKVTVLGAAAGAGGDYKDDDDKGAAAHHHHHH noted as 2.72

// field: standardized gMFI; key: NYA-2060 (scFv, also called NYA-2060 tag adduct) scFv: GEVQLVESGGGLVQPGGSLRLSCAASGFSIRSYDIHWVRQAPGKGLEWVATISYDGSQKYYADSVKGRFTISRDESKNTLYLQMNSLRAEDTAVYHCARGSSGHYEAFDIWGQGTLVTVSSGGGGSGGGGSGGGGSQSVLTQPPSVSAAPGQKVTISCSGSSSNIGNWYVSWYQQLPGTAPKLLIYDNNKRPSGIPDRFSGSKSGTSATLGITGLQTGDEADYYCGTWDSSLSAPWVFGGGTKVTVLGAAAGAGGDYKDDDDKGAAAHHHHHH ; value = 0.52

// standardized gMFI lookup, binder = NYA-2048 (scFv, also called NYA-2048 tag adduct) scFv: GQVQLVESGGGVVQPGRSLRLSCAASGFSIRSYDMHWVRQAPGKGLEWVATISYDGSQKYYADSVKGRFTISRDNSKNTLYLQMSSLRAEDTAVYHCARGSSGHYEAFDIWGQGTLVTVSSGGGGSGGGGSGGGGSQSVLTQPPSASGTPGQRVTISCSGSSSNIGNWYVSWYQQLPGTAPKLLIYDNNKRPSGVPDRFSGSKSGTSASLAISGLQSEDEADYYCGTWDSSLSAPWVFGGGTKLTVLGAAAGAGGDYKDDDDKGAAAHHHHHH , result: 0.51

For reference, reported standardized gMFI for NYA-2045 (scFv, also called NYA-2045 tag adduct) scFv: GEVQLVESGGGLVQPGGSLRLSCAASGFSIRSYDIHWVRLAPGKGLEWVATISYDGSQKYYADSVKGRFTISRDESKNTLYLQMNSLRAEDTAVYHCARGSSGHYEAFDIWGQGTLVTVSSGGGGSGGGGSGGGGSQSVLTQPPSASGTPGQRVTISCSGSSSNIGNWYVSWYQQLPGTAPKLLIYDNNKRPSGVPDRFSGSKSGTSASLAISGLQSEDEADYYCGTWDSSLSAPWVFGGGTKLTVLGAAAGAGGDYKDDDDKGAAAHHHHHH stands at 0.53

Value of measured standardized gMFI for the entry NYC-0004 (scFv, not shown: small tags and cut ends, also called T1 scFv; NYC-0004 tag adduct) scFv: EVQLLESGGGLVQPGGSLRLSCAASGFTFSTYQMSWVRQAPGKGLEWVSGIVSSGGSTAYADSVKGRFTISRDNSKNTLYLQMNSLRAEDTAVYYCAGELLPYYGMDVWGQGTTVTVSSGGGGSGGGGSGGGGSQSELTQPRSVSGSPGQSVTISCTGTERDVGGYNYVSWYQQHPGKAPKLIIHDVIERSSGVPDRFSGSKSGNTASLTISGLQAEDEADYYCWSFAGGYYVFGTGTDVTVL : 3.56

All figures here come from patent US20230348616A1.
